Test system: MDA-MB-468 breast
Assay Text: NCI tumour cell line growth inhibition, 48 h
Documented TGI across a set of compounds
Report only the number, with the unit µM understood.

Compound	TGI / µM
CN1CCN(Cc2ccc(NC(=O)c3cncc(C#Cc4cnc(N)c5ccccc45)c3)cc2C(F)(F)F)CC1	0.918

INPUT: Requested read-out: TGI. Entry: `CONC[C@]1(C)C=C2C(=O)[C@](C)(O)C3(CC3)C(C)=C2[C@H]1O`
OUTPUT: 1.97

INPUT: Requested read-out: TGI. Entry: `C[C@@H]1Cc2c([nH]c3ccccc23)[C@@H](c2c(F)cc(/C=C/C(=O)O)cc2F)N1CC(C)(C)F`
OUTPUT: 53.5

INPUT: Requested read-out: TGI. Entry: `N#Cc1nc(-c2ccc(F)cc2)oc1S(=O)(=O)N1CCOCC1`
OUTPUT: 3.27

INPUT: Requested read-out: TGI. Entry: `CSc1ccccc1NC(=O)c1ccc2nnn(/C(C#N)=C/c3ccccn3)c2c1`
OUTPUT: 3.32

INPUT: Requested read-out: TGI. Entry: OC(c1cccc(C(F)(F)F)c1)c1cnccc1NC1CCCCCC1 (stereo not given)
OUTPUT: 2.76

INPUT: Requested read-out: TGI. Entry: `Fc1ccc(-c2nn(-c3ccccc3)cc2-c2nc3ccccc3o2)cc1`
OUTPUT: 0.877

INPUT: Requested read-out: TGI. Entry: COc1ccc(CN2CCCC(C(=O)c3ccc(C(F)(F)F)cc3)C2)c(O)c1 (stereo not given)
OUTPUT: 41.6

INPUT: Requested read-out: TGI. Entry: `CN=C1NC(=O)/C(=C/c2ccc3ncccc3c2)S1`
OUTPUT: 21.6
